# SYSTEM: T1, Human-Fc-tagged SARS-CoV2 S1 recombinant protein (Sino Biologicals) (SARS-CoV-2, UniProt P0DTC2 16-685)
# T1 construct: domain: S1; Bought reagent
# RUN_DESCRIPTION: ELISA on coated S1-hFc, 3 µg/ml; rabbit antibody in B-cell supernatant

{"BINDER": "P043.A.00023.A08 (protein sample ID 446) (antibody, V domains shown) VH: QSVEESGGRLVTPGTPLTLTCTVSGFSLSKYAMSWVRQAPGKGLEWIGIISSGGSTYYASWAKGRFTISKTSSTTVDLKITSPTTEDTATYFCARAGYPGYSPHYFNIWGPGTLVTVSL VL: AIQMTQSPSSLAASVGDTVTITCKASEDIGYELNWYQQKLGIAPKLLIYGANTLESGVPSRFTGSGSETDYTLTISSVQAEDAGIYYCQQGYSTPPTFGAGTKVEIK", "EC50 (ng/mL)": 8.5}
{"BINDER": "P043.A.00017.E07 (protein sample ID 449) (antibody, V domains shown) VH: QSVEESGGRLVTPGTPLTLTCTVSGFSLSSYAMSWVRQAPGKGLEWIGIISSSGSTYYASWAKGRFTISKTSTTVDLKITSPTTEDTATYFCARAMYPGYSTGVYNIWGPGTLVTVSL VL: AIQMTQSPSSLAASVGDTVTITCKASEDIGYELNWYQQKLGIAPKLLIYGANTLESGVPSRFSGSGSETDYTLTISSVQAEDAGIYYCQQGYNTPNTFGAGTKVEIK", "EC50 (ng/mL)": 5.3}
{"BINDER": "P043.A.00017.E04 (antibody, V domains shown) VH: QSVEESGGRLVTPGTPLTLTCTVSGFSLNNYAMNWVRQAPGKGLEWIGIISSSGNTYYANWAKGRFTISKTSTTVDLKITSPTTEDTATYFCARDSYPGYSPYYGMDPWGPGTLVTVSS VL: AIQMTQSPSSLAASVGDTVTITCKASEDIAYGLNWYQQKLGITPKLLIYGANTLESGVPSRFSGSGSETHYTLTISSVQAEDAGIYYCQQGYNTPPTFGAGTKVEIK", "EC50 (ng/mL)": 19.6}
